# SYSTEM: 5-hydroxytryptamine receptor 7 (Homo sapiens)
# Sequence (P34969 whole entry): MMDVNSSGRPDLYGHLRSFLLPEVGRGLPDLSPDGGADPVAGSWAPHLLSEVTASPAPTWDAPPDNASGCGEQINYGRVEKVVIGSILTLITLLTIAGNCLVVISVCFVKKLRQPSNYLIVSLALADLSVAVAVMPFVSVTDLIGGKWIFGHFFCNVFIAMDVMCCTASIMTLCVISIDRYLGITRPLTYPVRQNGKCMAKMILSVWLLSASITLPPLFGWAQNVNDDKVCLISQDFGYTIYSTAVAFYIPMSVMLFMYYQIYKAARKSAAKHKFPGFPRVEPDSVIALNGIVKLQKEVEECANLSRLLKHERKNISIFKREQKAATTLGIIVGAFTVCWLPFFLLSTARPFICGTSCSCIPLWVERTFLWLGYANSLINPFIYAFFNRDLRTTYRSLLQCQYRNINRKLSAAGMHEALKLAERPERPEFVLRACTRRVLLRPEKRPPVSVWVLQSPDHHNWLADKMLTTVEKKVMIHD
# PROCEDURE DETAILS: Agonist activity at human recombinant 5HT7 receptor expressed in CHOK1 cells assessed as increase in cAMP levels by HTRF assay
PROPERTY LABEL: EC50 (nM)

MOLECULAR STRING: O=C1Cc2ccccc2N1CCCCN1CCc2ccccc2C1
NUMERIC RESULT: 310

---

// reported pKi for each item listed
# SYSTEM: 5-hydroxytryptamine receptor 1A (Homo sapiens)
# Sequence (P08908 whole entry): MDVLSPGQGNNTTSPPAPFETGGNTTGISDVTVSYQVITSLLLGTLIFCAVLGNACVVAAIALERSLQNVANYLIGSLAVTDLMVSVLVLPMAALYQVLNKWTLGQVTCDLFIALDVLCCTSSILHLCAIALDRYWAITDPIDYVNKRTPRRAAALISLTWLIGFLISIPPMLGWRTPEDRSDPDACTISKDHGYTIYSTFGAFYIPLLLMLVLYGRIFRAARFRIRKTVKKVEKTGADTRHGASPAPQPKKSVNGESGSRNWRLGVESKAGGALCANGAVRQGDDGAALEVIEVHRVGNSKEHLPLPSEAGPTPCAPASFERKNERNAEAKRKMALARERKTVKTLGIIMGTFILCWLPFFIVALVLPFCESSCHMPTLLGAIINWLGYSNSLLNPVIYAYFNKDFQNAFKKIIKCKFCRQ
# PROCEDURE DETAILS: Displacement of [3H]8-OH-DPAT from human recombinant 5HT1A receptor expressed in HEK293 cells
pKi: −log10 of the molar value.
PROPERTY LABEL: pKi

MOLECULAR STRING: COc1ccccc1N1CCN(CCCCN2C(=O)Cc3ccccc32)CC1
RELATION QUALIFIER: <
NUMERIC RESULT: 6.00
//
MOLECULAR STRING: O=C1Cc2ccccc2N1CCCCN1CCN(c2cccc3ccccc23)CC1
RELATION QUALIFIER: =
NUMERIC RESULT: 7.66
//
MOLECULAR STRING: O=C1Cc2ccccc2N1CCCCCN1CCN(c2cccc3ccccc23)CC1
RELATION QUALIFIER: =
NUMERIC RESULT: 7.80
